Value source: patent US8148391B2

target: baculovirus-expressed ALK (Homo sapiens); construct: host or cells: baculovirus expression system; test: ALK Kinase Assay (ELISA-type, time-resolved fluorescence); format: biochemical; details: ALK kinase inhibition, 1 μM ATP (Km level); read-out: ALK Activity
Sequence (Q9UM73 19-1620): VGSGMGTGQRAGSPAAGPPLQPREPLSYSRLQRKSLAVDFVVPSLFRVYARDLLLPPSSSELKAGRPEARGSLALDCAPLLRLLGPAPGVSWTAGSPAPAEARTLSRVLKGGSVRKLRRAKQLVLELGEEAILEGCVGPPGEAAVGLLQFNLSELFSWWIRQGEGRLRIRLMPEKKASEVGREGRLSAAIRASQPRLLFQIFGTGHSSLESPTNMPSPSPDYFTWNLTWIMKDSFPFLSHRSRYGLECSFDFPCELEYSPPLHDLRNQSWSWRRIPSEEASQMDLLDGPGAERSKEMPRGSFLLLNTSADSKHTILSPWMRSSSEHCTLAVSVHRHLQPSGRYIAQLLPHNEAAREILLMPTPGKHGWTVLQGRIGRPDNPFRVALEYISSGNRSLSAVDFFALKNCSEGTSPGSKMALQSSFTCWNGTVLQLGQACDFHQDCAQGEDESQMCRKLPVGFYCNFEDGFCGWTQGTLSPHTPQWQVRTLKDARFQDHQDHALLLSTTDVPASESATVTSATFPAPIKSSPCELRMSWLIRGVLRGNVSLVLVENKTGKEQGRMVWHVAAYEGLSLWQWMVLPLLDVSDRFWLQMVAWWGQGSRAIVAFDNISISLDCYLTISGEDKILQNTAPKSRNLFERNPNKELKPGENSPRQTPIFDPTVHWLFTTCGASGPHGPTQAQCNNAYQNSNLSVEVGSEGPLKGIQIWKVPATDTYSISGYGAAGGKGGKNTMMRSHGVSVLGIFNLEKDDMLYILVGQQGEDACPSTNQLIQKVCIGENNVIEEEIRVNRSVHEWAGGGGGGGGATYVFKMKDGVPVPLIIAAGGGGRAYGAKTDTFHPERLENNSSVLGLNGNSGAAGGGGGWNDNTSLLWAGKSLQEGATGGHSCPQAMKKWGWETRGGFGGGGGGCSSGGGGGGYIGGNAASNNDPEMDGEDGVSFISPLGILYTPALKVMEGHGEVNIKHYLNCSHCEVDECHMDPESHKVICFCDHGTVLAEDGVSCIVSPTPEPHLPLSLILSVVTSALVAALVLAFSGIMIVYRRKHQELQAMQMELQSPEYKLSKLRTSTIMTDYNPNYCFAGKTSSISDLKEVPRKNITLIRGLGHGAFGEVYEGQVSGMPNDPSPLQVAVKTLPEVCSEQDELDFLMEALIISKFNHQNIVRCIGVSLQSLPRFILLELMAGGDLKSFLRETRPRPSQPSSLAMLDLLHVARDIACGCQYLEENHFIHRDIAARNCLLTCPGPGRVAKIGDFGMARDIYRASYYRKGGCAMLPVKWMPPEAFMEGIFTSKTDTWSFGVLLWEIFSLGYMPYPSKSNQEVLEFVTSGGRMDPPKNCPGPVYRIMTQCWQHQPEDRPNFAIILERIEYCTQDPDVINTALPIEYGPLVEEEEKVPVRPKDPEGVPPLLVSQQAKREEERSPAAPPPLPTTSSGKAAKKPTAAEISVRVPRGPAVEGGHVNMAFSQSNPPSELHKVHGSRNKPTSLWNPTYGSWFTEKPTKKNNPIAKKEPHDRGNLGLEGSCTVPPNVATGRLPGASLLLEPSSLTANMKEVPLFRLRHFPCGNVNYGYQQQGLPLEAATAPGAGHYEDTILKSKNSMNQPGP
endpoint label: IC50

# annotated cases, reported IC50 shown
{"compound": "CN1C(=O)CCCc2ccc(Nc3ncc(Cl)c(NC4C5C=CC(C5)C4C(N)=O)n3)cc21 (stereo not shown) [Example 110]", "test system": "baculovirus-expressed ALK (Homo sapiens)", "IC50": "< 100 nM"}
{"compound": "CNC(=O)c1cccc(F)c1Nc1nc(Nc2ccc3c(c2)N(C(C)=O)CC(=O)NC3)ncc1Cl [Example 1877]", "test system": "baculovirus-expressed ALK (Homo sapiens)", "IC50": "< 100 nM"}
{"compound": "COCCN1CCc2ccc(Nc3ncc(Cl)c(NCC(C)NS(C)(=O)=O)n3)cc2CC1 (stereo not shown) [Example 301]", "test system": "baculovirus-expressed ALK (Homo sapiens)", "IC50": "100 to 1000 nM"}

# evaluate next
Inquiry: Checklist item: IC50 tested on baculovirus-expressed ALK (Homo sapiens), entry CNC(=O)c1ccccc1Nc1nc(Nc2ccc3c(c2)N(C)CCN(CCO)C3)ncc1Cl [Example 485] , value?
Reply text: < 100 nM
